# Tested on: K-562 leukemia
# testSummary: NCI tumour cell line growth inhibition, 48 h
observedProperty: TGI (µM)
# number only, unit µM dropped from output

compound: COC(=O)c1c(C)cc2c(c1O)C1(O)C(=O)c3cc4c(c(O)c3C(=O)C1(OC)C(O)C2)C(=O)C=C(NC1OC(C)C(OC)C(O)C1OC)C4=O (configuration not stated)
observedProperty: TGI
valueMeasured: 0.178

compound: O=C(Nc1ccc([N+](=O)[O-])cc1C(=O)O)c1ccc([N+](=O)[O-])cc1
observedProperty: TGI
valueMeasured: 32.3

Readout TGI for c1ccc2c(Nc3ccc(Oc4ccc(Nc5c6ccccc6nc6ccccc56)cc4)cc3)c3ccccc3nc2c1 , test system K-562 leukemia, was 1.08

Readout TGI for COC(=O)c1cc(-c2ccc(-c3ccc(O)cc3)cc2)cc(-c2ccc(-c3ccc(O)cc3)cc2)c1 , test system K-562 leukemia, was 17.6

###

# key: entry, value: GI50
# Test system: SF-268 CNS
# testSummary: NCI tumour cell line growth inhibition, 48 h

# annotated cases, reported GI50 shown
structureSmilesString: COc1ccc2cc3[n+](cc2c1OC)CCc1cc2c(cc1-3)OCO2
GI50: 4.68 µM

structureSmilesString: Cc1cc(O)ccc1O
GI50: 35.3 µM

Next item in the queue.
Readout GI50 for COc1ccc(Cn2cnc3cc(C(=O)Nc4cccc5ccccc45)ccc32)c(OC)c1 , test system SF-268 CNS, was 0.104 µM

###

# Tested on: HOP-62 NSCLC
# testSummary: NCI tumour cell line growth inhibition, 48 h
observedProperty: TGI

# annotated cases, reported TGI shown
molecule: O=Cc1[nH]c(=O)[nH]c(=O)c1CCl
TGI: > 100 µM

molecule: CC(=O)OCC1OC(n2c3c(cc(C#N)c2=S)CCCCCC3)C(OC(C)=O)C(OC(C)=O)C1OC(C)=O (centres undefined)
TGI: > 100 µM

molecule: CN1C(=O)c2cc([N+](=O)[O-])ccc2[C@H]2C(=O)c3cc4c(cc3[C@H]21)OCO4
TGI: > 100 µM

molecule: Cc1cc(NS(=O)(=O)c2ccc(NC(=O)c3cccc4cc5ccccc5nc34)cc2)no1
TGI: 66.4 µM

molecule: COc1ccc(N2CCN(Cc3c(C(C)=O)[n+](=O)c4ccccc4n3[O-])CC2)cc1
TGI: > 100 µM

Record summary for O=C(CC(O)c1ccncc1)c1ccccc1 (centres undefined) : reported TGI = > 100 µM

Record summary for CC1(C)CCCCCC(C)(CCCCCCCCCCCO)C1=O (centres undefined) : reported TGI = 31.6 µM

Record summary for C=CCOC(=O)CCCCCCCCCCCCCCCOC(=O)c1c(CCC[C@@H](C)O[Si](C)(C)C(C)(C)C)nc(=O)n2c1CC[C@H]2CC1(CC/C=C\[C@H](CC)O[Si](C(C)C)(C(C)C)C(C)C)OCCO1 : reported TGI = > 100 µM

Record summary for CC(=O)[O-].[Ni].c1ccc(/C(=N\Nc2ccccn2)c2ccccn2)cc1 : reported TGI = 30.1 µM

###

# Test system: CAKI-1 renal
# testSummary: NCI tumour cell line growth inhibition, 48 h
observedProperty: TGI

Record summary for N#Cc1c(-c2ccc(Cl)cc2)c(-c2ccc(Cl)cc2)nn(CCOC(=O)CCC(=O)O)c1=O : reported TGI = 22.9 µM

Record summary for CC(=O)Nc1ccc(S(=O)(=O)[N-]C2C(=O)c3ccccc3C(=O)C2[n+]2ccccc2)cc1 (stereo unspecified) : reported TGI = > 100 µM

Record summary for CO/N=C(\COc1ccc2c(c1)oc(=O)c1cc(OC)ccc12)c1ccc(F)cc1 : reported TGI = 55 µM

Record summary for CCOc1ccc(N=Nc2ccc3oc(=O)c(/C(C)=N\NC(=O)CC(=O)Nc4ccc(Cl)cc4)cc3c2)cc1 : reported TGI = > 100 µM

Record summary for COc1ccc2c(c1)C(=O)/C(=C/c1ccc([N+](=O)[O-])s1)O2 : reported TGI = > 100 µM

Record summary for Cc1cc(O)ccc1O : reported TGI = 57.4 µM

Record summary for O=C(NCC(=O)N1CC[C@H](NC2CCC(O)(c3ccc(-c4ncccn4)cn3)CC2)C1)c1cccc(C(F)(F)F)c1 (stereo partly specified) : reported TGI = > 100 µM

Record summary for COc1cc(-n2cc(-c3ccc(F)cc3)[nH]c2=S)cc(OC)c1OC : reported TGI = > 100 µM

Record summary for N#Cc1c(NC(=O)c2cccc3ccccc23)sc2c1CCCC2 : reported TGI = > 25 µM

Record summary for O=C(Nc1ccc(Cl)cc1)c1ccc([N+](=O)[O-])o1 : reported TGI = 10.1 µM

Record summary for CC(C)CCNC(=O)c1ccc(CNC(=O)/C=C/c2csc(-c3ccccc3)n2)cc1 : reported TGI = > 100 µM

Record summary for O=C(N1CCC(CN=c2cc3n(-c4ccc(Cl)cc4)c4ccccc4nc-3cc2Nc2ccc(Cl)cc2)CC1)N1CC1 : reported TGI = 3.88 µM

Record summary for COCOCc1cc(OCc2ccccc2)c(OC)cc1Br : reported TGI = > 100 µM

Record summary for Clc1ccc2c(c1)CC1C[N+]3=C(CCCC3)C1=C2 (stereo unspecified) : reported TGI = > 100 µM

Record summary for COc1ccc2c(c1)O[C@H]1c3ccc(O)cc3OC[C@@H]21 : reported TGI = > 100 µM

Record summary for Cc1ccc(NC(=O)C(=O)C2NC(=S)NC2=O)c([N+](=O)[O-])c1 (stereo unspecified) : reported TGI = > 100 µM
